molecular target: T1, cynomolgus ROR1 on CHO-K1-cynoROR1 cells (cynomolgus monkey, UniProt A0A2K5WTX7 30-937); assay: flow cytometry on CHOK1-cynoROR1 cells, MFI (Mean) [bottom panel, letter not given]
T1 construct: whole, on cells
attribute.measured: EC50 (read off the curve)

{"binder": "PR303191 (antibody, human IgG1, V domains shown, HCAb (heavy chain-only, human IgG1 Fc), no light chain) VH: EVQLLESGGGLVQPGGSLRLSCAASGFIFGSYAMSWVRQAPGKGLEWVSGISGTGGNTYYADSVKGRFTISRDNSKNTLYLQMNSLRAEDTAVYFCERGITIHGVVIIPPDYRGQGTLVTVSS", "attribute.measured": "EC50 (read off the curve)", "val": "~0.03 µg/mL"}
{"binder": "PR000374 (antibody, human IgG1, kappa, V domains shown, positive control; also called Bench marker 1) VH: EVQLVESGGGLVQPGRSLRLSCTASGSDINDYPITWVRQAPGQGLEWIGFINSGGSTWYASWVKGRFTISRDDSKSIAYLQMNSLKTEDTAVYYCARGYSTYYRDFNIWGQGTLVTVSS VL: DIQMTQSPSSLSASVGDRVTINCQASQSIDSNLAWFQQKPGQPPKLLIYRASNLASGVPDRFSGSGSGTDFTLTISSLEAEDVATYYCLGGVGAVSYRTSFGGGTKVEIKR", "attribute.measured": "EC50 (read off the curve)", "val": "~0.3 µg/mL"}
{"binder": "PR303125 (antibody, human IgG1, V domains shown, HCAb (heavy chain-only, human IgG1 Fc), no light chain) VH: EVQLLESGGGLVQPGGSLRLSCAASGFTFSSHAMSWVRQAPGKGLEWVSAISGSGDSTHYAASVKGRFTISRDNSKNTLYLQMNSLRAEDTAVYYCETLLRFLESLGNDGFKIWGQGTMVTVSS", "attribute.measured": "EC50 (read off the curve)", "val": "~0.2 µg/mL"}
{"binder": "PR303201 (antibody, human IgG1, V domains shown, HCAb (heavy chain-only, human IgG1 Fc), no light chain) VH: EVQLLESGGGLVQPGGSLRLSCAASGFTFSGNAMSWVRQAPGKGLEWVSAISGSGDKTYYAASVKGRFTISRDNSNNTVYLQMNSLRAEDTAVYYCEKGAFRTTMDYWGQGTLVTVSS", "attribute.measured": "EC50 (read off the curve)", "val": "~0.06 µg/mL"}
